testProtocol: Human microsomal stability assay
Type: in vitro ADME
particulars: human liver microsomes 0.5 mg/mL, 37° C., pH 7.4, NADPH regenerating system, 0-30 minutes
molecules and their reported CL (h)

# molecule, CL (h) (mL/min/kg)
measured = [
    ("CO[C@@H]1CN(c2ccc3c(c2)CN2[C@H](C)CN(c4ccc(C#N)n5nccc45)C[C@H]32)CC[C@H]1N [Example 104]", 7.0),
    ("C[C@@H]1CN(c2ccc(C#N)c3ncccc23)CC2c3ccc(N4C[C@H](N)[C@@H](O)C4)cc3CN21 (relative stereo) [Example 21]", 6.2),
    ("C[C@@H]1CN(c2ccc(C#N)c3ncccc23)C[C@@H]2c3ccc(C(=O)N4CCC(C)(N)CC4)cc3CN12 [Example 88]", 6.2),
    ("C[C@@H]1CN(c2ccc(C#N)c3ncccc23)C[C@@H]2c3ccc(NCC4(F)CNC4)cc3CN12 [Example 69]", 8.4),
    ("C[C@@H]1CN(c2ccc(C#N)c3ncccc23)C[C@@H]2c3ccc(N4CC5CNCC(C4)O5)cc3CN12 [Example 14]", 6.2),
    ("C[C@@H]1CN(c2ccc(C#N)c3ncccc23)C[C@@H]2c3ccc(NCCN4CC[C@H](O)C4)cc3CN12 [Example 68]", 7.9),
    ("CO[C@H]1CN(c2ccc3c(c2)CN2C3CN(c3ccc(C#N)c4ncccc34)C[C@H]2C)C[C@@H]1N (single isomer, unassigned) [Example 16A]", 8.5),
]

Each recorded value in this set is attributed to patent US12157746B2.
